Source: ChEMBL document CHEMBL1142860

- test_protocol: Antiproliferative activity against drug sensitive Messa cell line by Alamar Blue assay
- Format: functional, cell-based
- condition_description: Homo sapiens, MES-SA
Would you mind telling me the reported log10(IC50) of each entry?
The base-10 logarithm of IC50, taken with IC50 in nM, is what appears here.

>  <structure>
CC(=O)O[C@H]1C(=O)[C@@]2(C)[C@H]([C@H](OC(=O)c3ccccc3)[C@]3(O)C[C@H](OC(=O)[C@H](O)[C@@H](NC(=O)c4ccccc4)c4ccccc4)C(C)=C1C3(C)C)[C@]1(OC(C)=O)CO[C@@H]1C[C@@H]2O

>  <log10(IC50)>
0.20

$$$$
>  <structure>
CC[C@]1(O)C[C@@H]2CN(CCc3c([nH]c4ccccc34)[C@@](C(=O)OC)(c3cc4c(cc3OC)N(C)[C@H]3[C@@](O)(C(=O)OC)[C@H](OC(C)=O)[C@]5(CC)C=CCN6CC[C@]43[C@@H]65)C2)C1

>  <log10(IC50)>
0.20

$$$$
>  <structure>
COc1cccc2c1C(=O)c1c(O)c3c(c(O)c1C2=O)C[C@@](O)(C(C)=O)C[C@@H]3O[C@H]1C[C@H](N)[C@H](O)[C@H](C)O1

>  <log10(IC50)>
1.30

$$$$
>  <structure>
COc1cc2c(c(OC)c1OC)-c1ccc(OC)c(=O)cc1[C@@H](NC(C)=O)CC2

>  <log10(IC50)>
0.80

$$$$

Quick request: log10(IC50) for each listed item, please.
1. COc1ccc(/C=C\c2cc(OC)c(OC)c(OC)c2)cc1O
2. C#Cc1c(OC)ccc2c(C(=O)c3cc(OC)c(OC)c(OC)c3)n[nH]c12

[A]
0.20
0.28

Go through the list and state log10(IC50) for each entry.
1. COc1cc(C(=O)c2n[nH]c3c(C#CCO)c(OC)ccc23)cc(OC)c1OC
2. CC#Cc1c(OC)ccc2c(C(=O)c3cc(OC)c(OC)c(OC)c3)n[nH]c12

[A]
[0.23, 0.20]

----------
- measured_target: Tubulin
- test_protocol: Displacement of [3H]colchicine from tubulin in HeLa cells
- Format: cell-based, Homo sapiens
value_type: pIC50
One number for each entry, as −log10 of the molar value.

[Q] Requested read-out: pIC50. Entry: COc1cc(C(=O)c2n[nH]c3c(C#CCO)c(OC)ccc23)cc(OC)c1OC
[A] 7.34

----------
- System: NCI-H460
- test_protocol: Inhibition of proliferation of human H460 cells
- Assay type: functional, cell-based
Hi there, I'd appreciate the recorded IC50 for every entry that follows.
One number for each entry, in nM.

// for each compound in input: emit IC50
1. CC#Cc1c(OC)ccc2c(C(=O)c3cc(OC)c(OC)c(OC)c3)n[nH]c12
2. COc1cc(C(=O)c2n[nH]c3c(C#CC(C)(C)O)c(OC)ccc23)cc(OC)c1OC
3. COc1cc(C(=O)c2n[nH]c3c(C#C[C@H](C)O)c(OC)ccc23)cc(OC)c1OC
4. COc1ccc(/C=C\c2cc(OC)c(OC)c(OC)c2)cc1O

[A]
1. 1
2. 195
3. 14
4. 10

----------
- Test system: NCI-H460
- test_protocol: Inhibition of proliferation of human H460 cells
- Format: functional, cell-based
value_type: pIC50
Numbers only, as −log10 of the molar value.

>  <structure>
COc1cc(C(=O)c2n[nH]c3c(/C=C\CO)c(OC)ccc23)cc(OC)c1OC

>  <pIC50>
7.89

$$$$
>  <structure>
COc1cc(C(=O)c2n[nH]c3c(C#CCN)c(OC)ccc23)cc(OC)c1OC

>  <pIC50>
6.61

$$$$
>  <structure>
C#Cc1c(OC)ccc2c(C(=O)c3cc(OC)c(OC)c(OC)c3)n[nH]c12

>  <pIC50>
8.52

$$$$
>  <structure>
COc1cc(C(=O)c2n[nH]c3c(C#CCCCO)c(OC)ccc23)cc(OC)c1OC

>  <pIC50>
8.10

$$$$
>  <structure>
COc1cc(C(=O)c2n[nH]c3c(C#CCO)c(OC)ccc23)cc(OC)c1OC

>  <pIC50>
8.10

$$$$

Provide the reported pIC50 of each entry below, same order.
1. COc1cc(C(=O)c2n[nH]c3c(C#C[C@@H](C)O)c(OC)ccc23)cc(OC)c1OC
2. COc1cc(C(=O)c2n[nH]c3c(C#CCCO)c(OC)ccc23)cc(OC)c1OC
3. COc1cc(C(=O)c2n[nH]c3c(CCCO)c(OC)ccc23)cc(OC)c1OC
4. COc1ccc2c(C(=O)c3cc(OC)c(OC)c(OC)c3)c[nH]c2c1

[A]
7.54
7.85
6.55
7.80

----------
- System: NCI-H69
- test_protocol: Antiproliferative activity against drug sensitive NCI-H69 cell line by Alamar Blue assay
- Type: functional, cell-based
- condition_description: Homo sapiens
Kindly apply the following: criterion met if IC50 is less than 2 nM, criterion not met in every other case.

>  <compound>
CC#Cc1c(OC)ccc2c(C(=O)c3cc(OC)c(OC)c(OC)c3)n[nH]c12

>  <cat>
criterion met

$$$$
>  <compound>
CC[C@]1(O)C[C@@H]2CN(CCc3c([nH]c4ccccc34)[C@@](C(=O)OC)(c3cc4c(cc3OC)N(C)[C@H]3[C@@](O)(C(=O)OC)[C@H](OC(C)=O)[C@]5(CC)C=CCN6CC[C@]43[C@@H]65)C2)C1 [VINBLASTINE]

>  <cat>
criterion met

$$$$
>  <compound>
COc1cc(C(=O)c2n[nH]c3c(C#CCO)c(OC)ccc23)cc(OC)c1OC

>  <cat>
criterion met

$$$$
>  <compound>
COc1cccc2c1C(=O)c1c(O)c3c(c(O)c1C2=O)C[C@@](O)(C(C)=O)C[C@@H]3O[C@H]1C[C@H](N)[C@H](O)[C@H](C)O1 [DAUNORUBICIN]

>  <cat>
criterion not met

$$$$
>  <compound>
C#Cc1c(OC)ccc2c(C(=O)c3cc(OC)c(OC)c(OC)c3)n[nH]c12

>  <cat>
criterion not met

$$$$

[Q] Check if IC50 falls below 2 nM for COc1ccc(/C=C\c2cc(OC)c(OC)c(OC)c2)cc1O [COMBRETASTATIN A4] .
[A] criterion met

[Q] CC(=O)O[C@H]1C(=O)[C@@]2(C)[C@H]([C@H](OC(=O)c3ccccc3)[C@]3(O)C[C@H](OC(=O)[C@H](O)[C@@H](NC(=O)c4ccccc4)c4ccccc4)C(C)=C1C3(C)C)[C@]1(OC(C)=O)CO[C@@H]1C[C@@H]2O [PACLITAXEL] ?
[A] criterion met

----------
- test_protocol: Inhibition of bovine tubulin polymerization
- Set-up: species or system Bos taurus
value_type: pIC50
Answers are plain numbers, as −log10 of the molar value.

[Q] So what does the record say about pIC50 for COc1cc(C(=O)c2n[nH]c3c(C#CCO)c(OC)ccc23)cc(OC)c1OC ?
[A] 5.22
